B1: HMOX1 (parent)
chain: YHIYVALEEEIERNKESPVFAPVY

Variants of: B1
Test protocol: protein stability index of a GFP-peptide fusion (GPS, HEK-293T) (PSI 1-6); higher = more stable;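 note: lentivirally expressed fusions sorted by FACS into six bins by GFP to DsRed ratio, PSI derived from sequencing read proportions per bin multiplied by bin number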
Applied conditions: c terminus: a fixed tail appended
Readout type: protein stability index
// no unit, no text: just the number

Given the variant YHIYVALEEEIERNKQSPVFAPVY [E16Q] , what is its reported protein stability index?
2.11

Same thing, different variant: YHIYVALEEEIERNKPSPVFAPVY [E16P]
2.23

Same thing, different variant: YHIYVALEEEIERNKESPVFAWVY [P22W]
1.87

Same thing, different variant: YHIYVALEEEIERNKESPVFAPLY [V23L]
1.77

Same thing, different variant: YHIYVALEEEIERFKESPVFAPVY [N14F]
2.15

Same thing, different variant: YHIYVALEEEIERNKESPVFAPMY [V23M]
1.89

Same thing, different variant: WHIYVALEEEIERNKESPVFAPVY [Y1W]
2.59

Same thing, different variant: SHIYVALEEEIERNKESPVFAPVY [Y1S]
2.81

Same thing, different variant: YHIYVALEEKIERNKESPVFAPVY [E10K]
1.99

Same thing, different variant: YHIYVALEEEIERNKESPVFAPVW [Y24W]
1.98

Same thing, different variant: YHIYVALEEEIERNKESPVFAPVD [Y24D]
3.35

Same thing, different variant: YHIYVALYEEIERNKESPVFAPVY [E8Y]
1.05

Same thing, different variant: YMIYVALEEEIERNKESPVFAPVY [H2M]
2.17

Same thing, different variant: YHIYVALEEEIERMKESPVFAPVY [N14M]
2.31

Same thing, different variant: YHIYVALEEVIERNKESPVFAPVY [E10V]
1.92

Same thing, different variant: YHIYVALEEEIERNIESPVFAPVY [K15I]
1.87

Same thing, different variant: YHITVALEEEIERNKESPVFAPVY [Y4T]
1.59

Same thing, different variant: YHIYVALEEEIERNKESPVFAGVY [P22G]
1.76

Same thing, different variant: YHIYVALEEEIERNKESPVFKPVY [A21K]
2.8

Same thing, different variant: YHIYVALEEEIERNKEPPVFAPVY [S17P]
2.02

Same thing, different variant: YHIYVALEEEICRNKESPVFAPVY [E12C]
1.52

Same thing, different variant: YHIYVALEEEIERNKESPVFAMVY [P22M]
3.18
